- TARGET OF ASSAY: F508delCFTR in primary hBE cells with F508del/F508del CFTR mutation (Homo sapiens, UniProt P13569, DEL508-508)
- Construct: cells isolated from CF patients with the homozygous mutation; endogenous in cells
- Sequence (P13569 with tags, fused parts or gaps DEL508-508): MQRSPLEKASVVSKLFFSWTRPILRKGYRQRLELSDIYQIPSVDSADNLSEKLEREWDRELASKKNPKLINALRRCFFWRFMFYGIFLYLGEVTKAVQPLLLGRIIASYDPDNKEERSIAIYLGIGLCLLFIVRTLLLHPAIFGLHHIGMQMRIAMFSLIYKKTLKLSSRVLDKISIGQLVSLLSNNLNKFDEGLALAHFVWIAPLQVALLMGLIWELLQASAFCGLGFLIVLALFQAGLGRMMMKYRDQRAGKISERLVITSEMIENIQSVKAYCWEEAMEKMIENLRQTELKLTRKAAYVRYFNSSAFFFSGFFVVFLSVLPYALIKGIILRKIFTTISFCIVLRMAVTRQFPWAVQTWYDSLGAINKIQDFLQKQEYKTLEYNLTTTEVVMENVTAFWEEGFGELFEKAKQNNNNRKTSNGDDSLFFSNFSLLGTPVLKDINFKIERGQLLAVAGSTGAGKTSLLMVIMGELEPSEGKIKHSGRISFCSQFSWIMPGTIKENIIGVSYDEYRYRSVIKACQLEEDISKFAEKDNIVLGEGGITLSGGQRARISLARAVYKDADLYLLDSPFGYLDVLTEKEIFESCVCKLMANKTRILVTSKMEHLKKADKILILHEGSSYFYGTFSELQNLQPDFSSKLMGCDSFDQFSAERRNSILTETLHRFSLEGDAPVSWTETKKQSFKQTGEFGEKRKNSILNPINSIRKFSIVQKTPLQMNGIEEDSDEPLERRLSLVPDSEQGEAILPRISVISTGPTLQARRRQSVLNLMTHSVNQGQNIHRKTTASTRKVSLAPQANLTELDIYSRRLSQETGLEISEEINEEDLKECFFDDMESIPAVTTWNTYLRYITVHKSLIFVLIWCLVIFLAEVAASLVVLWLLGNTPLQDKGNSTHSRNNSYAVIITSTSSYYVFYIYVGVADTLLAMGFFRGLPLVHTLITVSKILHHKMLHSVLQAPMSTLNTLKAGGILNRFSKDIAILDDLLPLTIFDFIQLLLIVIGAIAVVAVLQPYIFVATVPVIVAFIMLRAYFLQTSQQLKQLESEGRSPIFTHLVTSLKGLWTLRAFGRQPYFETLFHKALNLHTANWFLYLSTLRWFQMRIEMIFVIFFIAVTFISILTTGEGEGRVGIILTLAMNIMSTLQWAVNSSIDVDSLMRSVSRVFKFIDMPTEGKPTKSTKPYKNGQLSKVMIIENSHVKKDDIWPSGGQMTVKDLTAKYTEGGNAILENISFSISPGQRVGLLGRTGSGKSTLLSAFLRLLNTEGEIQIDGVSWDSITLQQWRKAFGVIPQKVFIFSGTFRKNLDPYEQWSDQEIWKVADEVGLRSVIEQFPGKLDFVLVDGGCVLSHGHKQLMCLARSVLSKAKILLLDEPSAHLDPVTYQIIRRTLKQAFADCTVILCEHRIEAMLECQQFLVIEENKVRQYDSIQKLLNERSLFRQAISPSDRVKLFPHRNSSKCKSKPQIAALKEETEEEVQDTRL
- TEST SUMMARY: Transepithelial Clamp Circuit on Human Bronchial Epithelial Cells Conductance Assay (hBE-TECC)
- CONDITION INFO: primary hBE cells F508del/F508del, 18-24 hours at 37° C., equivalent short circuit current, 6 concentrations

ENTRY SMILES	UNIT ANNOTATION	EC50
CC1(C)COC(C)(C)c2c1n(C[C@@H](O)CO)c1cc(F)c(NC(=O)[C@@]3(C)COc4cc5c(cc43)OC(F)(F)O5)cc21	nM	1030
COc1ccc2c(c1)O[C@@H](c1cnc(C(=O)O)cn1)C[C@H]2NC(=O)[C@@]1(C)COc2cc3c(cc21)OC(F)(F)O3	nM	550
CC(C)(CO)c1cc2cc(NC(=O)[C@@]3(C)COc4cc5c(cc43)OC(F)(F)O5)c(F)cc2n1C[C@@H](O)CC#N	nM	147
